Measured values drawn from patent US20240150297A1 for this set.

Experiment: Metabolic stability and clearance in cynomolgus monkey liver microsomes
Type: in vitro ADME
Details: male; cynomolgus monkey liver microsomes; read-out: Microsomal CLint, cyno
Method: The results of metabolic stability determinations for novel compounds and testosterone (positive control) were conducted in the presence of human, rat, mouse, and monkey liver microsomes. Values shown are percent of parent remaining after a 30 minute incubation. All measurements were done in duplicate. Assay results for testosterone were within an acceptable range. […]
quantity: microsomal CLint at 1 μM

> print(dat)
                                   compound            observed
1  Cc1n[nH]c(C)c1N1CCN(c2cc(C(=O)O)ccc2F)CC1 [Compound 18a]  < 0.0231 µL/min/mg

###

assay: in vivo; settings: male, CD-1, mouse, iv, 2 mg/kg
quantity: half-life (h)

> print(dat)
                                   compound   quantity  units.symbol  observed
1  Cc1n[nH]c(C)c1N1CCN(c2cc(C(=O)O)ccc2F)CC1 [Compound 18a]  half-life             h      5.08

###

native RBP4 purified from human urine (Homo sapiens (Human)) data, read-out pIC50
pIC50: −log10 of the molar value.
quantity: pIC50

> print(dat)
                                   compound                              assay.target  quantity  observed
1  Cc1n[nH]c(C)c1N1CCN(c2cccc(C(=O)O)c2F)CC1 [Compound 18g]  native RBP4 purified from human urine (Homo sapiens (Human))     pIC50    < 5.52
2  COc1ccc(C(=O)O)cc1N1CCN(c2c(C)n[nH]c2C)CC1 [Compound 18c]  native RBP4 purified from human urine (Homo sapiens (Human))     pIC50    < 5.52
3  Cc1cc(F)c(N2CCN(c3c(C)n[nH]c3C)CC2)cc1C(=O)O [Compound 18j]  native RBP4 purified from human urine (Homo sapiens (Human))     pIC50    < 5.52
4    Cc1noc(C)c1N1CCN(c2cc(C(=O)O)ccc2F)CC1  native RBP4 purified from human urine (Homo sapiens (Human))     pIC50    < 5.52
5  Cc1n[nH]c(C)c1N1CCN(c2cc(F)cc(C(=O)O)c2)CC1 [Compound 18i]  native RBP4 purified from human urine (Homo sapiens (Human))     pIC50    < 5.52
6    O=C(O)c1ccc2nc(-c3cc(Cl)cc(Cl)c3)oc2c1  native RBP4 purified from human urine (Homo sapiens (Human))     pIC50    < 4.52
7  Cc1n[nH]c(C)c1N1CCN(c2cc(C(=O)O)ccc2C(F)(F)F)CC1 [Compound 18e]  native RBP4 purified from human urine (Homo sapiens (Human))     pIC50    < 5.52
8  Cc1n[nH]c(C)c1CCCOc1cc(C(=O)O)ccc1F [AG10 (4), AG10, reference compound]  native RBP4 purified from human urine (Homo sapiens (Human))     pIC50    < 4.52
9  Cc1n[nH]c(C)c1N1CCN(c2ccc(F)c(C(=O)O)c2)CC1 [Compound 18h]  native RBP4 purified from human urine (Homo sapiens (Human))     pIC50    < 5.52

###

assay: in vivo; settings: male, CD-1, mouse, po, 5 mg/kg
quantity: AUC(0-inf) (ng·h/mL)

> print(dat)
                                   molecule    quantity  units.symbol  observed
1  Cc1n[nH]c(C)c1N1CCN(c2cc(C(=O)O)ccc2F)CC1 [Compound 18a]  AUC(0-inf)       ng·h/mL     16100
